system: von Bezold-Jarisch reflex evoked by 5-HT (serotonin); test: Antagonism of the von Bezold-Jarisch reflex evoked by 5-HT in anaesthetized rats; format: in vivo; conditions: Rattus norvegicus; 0.0316 mg/kg IV in anesthetized rats; read-out: Antiserotonin: von Bezold-Jarisch reflex % change in serotonin-induced bradycardia
endpoint-name: change in vivo at 0.0316 mg/kg (%)
Field: numeric (%). Do not append units.

Examples from the recorded data:
molecule=O=C(OCC12CCCN(CCC1)C2)c1c[nH]c2ccccc12 endpoint_name="change in vivo at 0.0316 mg/kg" endpoint_unit=% measured_result=-0.3
molecule="Cn1nc(C(=O)OCC23CCCN(CC2)C3)c2ccccc21 (stereo not drawn)" endpoint_name="change in vivo at 0.0316 mg/kg" endpoint_unit=% measured_result=-72
molecule=COc1cc(N)c(Cl)cc1C(=O)OCC12CCCN(CCC1)C2 endpoint_name="change in vivo at 0.0316 mg/kg" endpoint_unit=% measured_result=-23

Kindly note the recorded change in vivo at 0.0316 mg/kg for COc1cc(N)c(Cl)cc1C(=O)NCC12CCCN(CCC1)C2 , which is -32

Kindly note the recorded change in vivo at 0.0316 mg/kg for COCCOc1cc(N)c(Cl)cc1C(=O)NCC12CCCN(CC1)C2 (stereo not drawn) , which is -74

Kindly note the recorded change in vivo at 0.0316 mg/kg for Cn1cc(C(=O)OCC23CCCN(CC2)C3)c2ccccc21 (stereo not drawn) , which is -81

Kindly note the recorded change in vivo at 0.0316 mg/kg for COCCOc1cc(N)c(Cl)cc1C(=O)NCC12CCCN(CCC1)C2 , which is -30

Kindly note the recorded change in vivo at 0.0316 mg/kg for COc1cc(N)c(Cl)cc1C(=O)OCC12CCCN(CC1)C2 (stereo not drawn) , which is -82

Kindly note the recorded change in vivo at 0.0316 mg/kg for O=C(OCC12CCCN(CC1)C2)c1c[nH]c2ccccc12 (stereo not drawn) , which is -86
